All values here come from patent US20240409629A1.

Exercise: for every item that follows, state its recorded MFI.
# system.under.test: T1, human CLDN18.1 (human, UniProt P56856 1-261)
# T1 construct: also called claudin18.1
# procedure.summary: FACS, U2OS-CLDN18.1 cells, antibody at 200 nM
The answer should be a number; do not append a unit.

Problem: Quick check: MFI of chimeric antibody xi34G6 (antibody, human IgG1, kappa, V domains shown, Mouse variable regions on human IgG1/kappa; defucosylated, expressed in FUT8-knockout CHO-S cells; also called chimeric 34G6) VH: QVQLKESGPDLVAPSQSLSITCTVSGFSLTSYGVHWVRQPPGKGLEWLVVIWSDGSTTYNSALKSRLSISKDNSKSQVFLKMNSLQTDDTAIYYCARHAYYGNSFDYWGQGTTLTVSS VL: DIVMTQSPSSLTVTAGEKVTMSCKSSQSLLNSGNQKSYLTWYQQKPGQPPKLLIYWASTRESGVPDRFTGSGSGTDFTLTISSVQAEDLAVYYCQNVYIFPLTFGAGTKLELKR ?
Result: 7630

Problem: Quick check: MFI of chimeric antibody xi40F6 (antibody, human IgG1, kappa, V domains shown, Mouse variable regions on human IgG1/kappa; defucosylated, expressed in FUT8-knockout CHO-S cells; also called chimeric 40F6) VH: QVQLKESGPGLVAPSQSLSITCTVSGFSLTSYGVYWVRQSPGKGLEWLGVVWAGGNTNYNSALMSRLSISKDNSKSQVFLKMNSLQTDDTAMYYCARDRGRLLAMDYWGQGTSVTVSS VL: DVVMTQSPSSLSVSAGEKVTMSCKSSQSLLNSGNQKNYLAWYQQKPGQPPKLLIYGASTRESGVPDRFTGSGSGTDFTLTISSVQAEDLAVYYCQNDHFFPFTFGSGTKLEIKR ?
Result: 7070

Problem: Quick check: MFI of chimeric antibody xi28G3 (antibody, human IgG1, kappa, V domains shown, Mouse variable regions on human IgG1/kappa; defucosylated, expressed in FUT8-knockout CHO-S cells; also called chimeric 28G3) VH: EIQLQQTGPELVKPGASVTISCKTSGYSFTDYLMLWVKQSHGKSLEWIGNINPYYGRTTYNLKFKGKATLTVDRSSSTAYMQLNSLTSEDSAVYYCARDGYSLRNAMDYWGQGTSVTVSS VL: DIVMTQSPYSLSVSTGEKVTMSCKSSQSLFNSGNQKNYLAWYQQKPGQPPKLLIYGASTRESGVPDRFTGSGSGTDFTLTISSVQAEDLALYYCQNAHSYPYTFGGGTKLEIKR ?
Result: 7560
